Experiment: qHTS assay to identify small molecule antagonists of the sonic hedgehog signaling (Shh) pathway - cell viability counter screen (AID 1259367); note: % is set by controls: 0 for no effect and ±100 for the full control effect; nearly all actives have a fitted effect of over 55% in size
Conditions: NIH/3T3 Gli1-Luc viability, CellTiter-Fluor, 24 h; series mostly up to 92.4 µM
Source text: National Center for Advancing Translational Sciences [NCATS] NIH Chemical Genomics Center [NCGC] U.S. Environmental Protection Agency [EPA] National Institutes of Environmental Health Sciences [NIEHS] National Toxicology Program [NTP] U.S. Food and Drug Administration [FDA] The sonic hedgehog (Shh) pathway is essential for normal embryonic development. Dysregulation of the Shh pathway can cause severe developmental defects in organs. […]
Records with an inconclusive call do not appear. Active and inactive are the calls of the source. Calls come from the whole dose curve; as a rule, active = well fitted cell-killing curve with a large enough effect in the repeat runs; inconclusive = weak or mixed curves, or effect the other way; inactive = no such curve, though single readings can be large or run the other way.
Give one outcome, nothing more. List: true (1) for active, false (0) for inactive

Nc1cccnc1 | false (0)
CCOC(=O)C(C)OC(=O)c1cc(Oc2ccc(C(F)(F)F)cc2Cl)ccc1[N+](=O)[O-] (stereo not given) | false (0)
C=CCN(CC=C)C(=O)C(Cl)Cl | false (0)

Exercise: Please state the recorded outcome for this compound: O=P(Oc1ccccc1)(Oc1ccccc1)Oc1ccccc1
Key: false (0)

Exercise: Moving on to the next compound: O=c1oc2ccccc2c(O)c1C(CC(O)c1ccc(-c2ccc(Br)cc2)cc1)c1ccccc1 (stereo not given)
Key: false (0)

Exercise: How about this compound: COP(=S)(OC)Oc1cc(Cl)c(Cl)cc1Cl
Key: false (0)

###

Experiment: qHTS assay for identifying genotoxic compounds that show differential cytotoxicity against isogenic chicken DT40 cell lines with known DNA damage response pathways - Rad54/Ku70 mutant cell line (AID 743015); note: nearly all actives have a fitted effect of over 60% in size
Settings: DT40 Rad54/Ku70 mutant viability, CellTiter-Glo, 40 h; series mostly up to 66.8 µM
Inconclusive results are not listed. The source made the active and inactive calls. Calls come from the whole dose curve; as a rule, active = well fitted cell-killing curve with a large enough effect in the repeat runs; inconclusive = weak or mixed curves; inactive = no such curve, though single readings can be large or run the other way.
Permitted responses: active, inactive

Answered examples (2):
COc1ccc(C=O)cc1 | inactive
CCN(CC)C(=O)SCc1ccc(Cl)cc1 | active

Exercise: Field: outcome | Entry: Nc1cccnc1
Key: inactive

Exercise: Moving on to the next compound: Cc1c(COC(=O)[C@@H]2[C@H](/C=C(\Cl)C(F)(F)F)C2(C)C)cccc1-c1ccccc1
Key: inactive

Exercise: # repeat for O=P(O)(O)CCCl
Key: inactive

Exercise: Field entry: Cc1cc(Cl)ccc1OCCCC(=O)O
Key: inactive

Exercise: Lookup Cc1cccc(N)c1N
Key: active

Exercise: Lookup c1nc[nH]n1
Key: inactive

Exercise: Next record, please: C=CCN(CC=C)C(=O)C(Cl)Cl
Key: inactive

Exercise: Subsequent entry: COP(=S)(OC)Oc1cc(Cl)c(Cl)cc1Cl
Key: inactive

Exercise: Please do the same for OCC(O)CO as well.
Key: inactive

###

Target: Glucocorticoid receptor (Homo sapiens)
Test: qHTS assay to identify small molecule antagonists of the glucocorticoid receptor (GR) signaling pathway (AID 720692); note: % is set by controls: 0 for no effect and ±100 for the full control effect
Settings: GR-bla HeLa, beta-lactamase FRET ratio, dexamethasone-stimulated, 18 h; series mostly up to 58.5 µM
Inconclusive results are not listed. The source made the active and inactive calls. Calls follow the shape of the dose curve; as a rule, active = well fitted inhibition curve with a large enough effect in the signal ratio in the repeat runs (not every such curve was filed as active); inconclusive = weak or mixed curves, or effect the other way; inactive = no such curve, though single readings can be large or run the other way; the % refers to the signal ratio.
READOUT: outcome

Past entries and their recorded results:
Cc1ccc(OP(=O)(Oc2ccc(C)cc2)Oc2ccc(C)cc2)cc1 | inactive
Cc1cc(Cl)ccc1OCCCC(=O)O | inactive
O=C(O)CC[N+](=O)[O-] | inactive
OCC(O)CO | inactive

Turning now to a further molecule:
Exercise: I'd like to know its outcome. The molecule in question is C=CCN(CC=C)C(=O)C(Cl)Cl
Key: inactive
